Molecular target: T1, Pot1-DBD_T62A (Schizosaccharomyces pombe, UniProt O13988 1-389, T62A)
T1 sequence: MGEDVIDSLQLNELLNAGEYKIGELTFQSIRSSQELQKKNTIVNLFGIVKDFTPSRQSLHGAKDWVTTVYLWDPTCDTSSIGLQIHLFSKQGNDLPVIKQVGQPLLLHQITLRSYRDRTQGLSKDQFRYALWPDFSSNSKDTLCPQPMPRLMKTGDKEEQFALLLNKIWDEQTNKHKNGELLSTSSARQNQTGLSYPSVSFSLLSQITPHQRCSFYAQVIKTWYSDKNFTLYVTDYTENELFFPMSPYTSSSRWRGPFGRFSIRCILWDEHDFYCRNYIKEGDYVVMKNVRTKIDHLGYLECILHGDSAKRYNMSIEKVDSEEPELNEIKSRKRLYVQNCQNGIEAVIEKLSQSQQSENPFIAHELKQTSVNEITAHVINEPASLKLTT
Assay: filter binding
Measured Endpoint: pKd
Answers are plain numbers, as −log10 of the molar value.

Consider the binder GGTTACGGTTAC (ssDNA) [12mer] and give its measured pKd.
7.05
